Numbers sourced from PubChem BioAssay (NCI).

- Tested on: 786-0 renal
- EXPERIMENT NOTES: NCI-60 one-dose screen, 48 h (100 = growth as untreated, 0 = no growth, -100 = all killed)
- PROTOCOL CONDITIONS: 10 µM unless noted
About 83,000 compounds went through this panel and 20% of them were active in at least one assay; those are over-represented in the sample as a whole.
Mark FALSE for growth values under 60%, and TRUE for everything at or above.

- MOLECULE: "COC(=O)c1c2c(c(C)[n+]([O-])c1C)C(=O)C=CC2=O"
  SYSTEM UNDER TEST: "786-0 renal"
  CLASS LABEL: "FALSE"
- MOLECULE: "CCn1cc(C(=O)N/N=C/c2ccc(Br)cc2)c(=O)c2cc(F)c(N3CCNC(C)C3)c(F)c21 (stereo not given)"
  SYSTEM UNDER TEST: "786-0 renal"
  CLASS LABEL: "TRUE"
- MOLECULE: "CCCCC(=O)Nc1ncc(Cc2ccccc2Cl)s1"
  SYSTEM UNDER TEST: "786-0 renal"
  CLASS LABEL: "FALSE"
- MOLECULE: "N#CC(C#N)N=Nc1ccc(Cl)cc1Cl"
  SYSTEM UNDER TEST: "786-0 renal"
  CLASS LABEL: "TRUE"
- MOLECULE: "CCn1c2ccc(O)cc2c2c(C)c3c[n+](C(C)C)ccc3c(C)c21"
  SYSTEM UNDER TEST: "786-0 renal"
  CLASS LABEL: "FALSE"
- MOLECULE: "O=C(CCl)Nc1ccc2c(Nc3cc(O)ccc3Cl)ncnc2c1"
  SYSTEM UNDER TEST: "786-0 renal"
  CLASS LABEL: "FALSE"
- MOLECULE: "O=C1OCC2=C1C(c1cccc(C(F)(F)F)c1)c1cc3c(cc1N2CCO)OCO3 (stereo not given)"
  SYSTEM UNDER TEST: "786-0 renal"
  CLASS LABEL: "FALSE"
- MOLECULE: "C/C(=C(/c1ccc(Cl)cc1)c1ccc(OCCCN(C)C)cc1)c1ccc(Cl)cc1"
  SYSTEM UNDER TEST: "786-0 renal"
  CLASS LABEL: "TRUE"
- MOLECULE: "Cn1cc(-c2csc(-c3cn(C(=O)OC(C)(C)C)c4ccccc34)n2)c2ccnc(Cl)c21"
  SYSTEM UNDER TEST: "786-0 renal"
  CLASS LABEL: "TRUE"

###

- Test system: UACC-62 melanoma
- EXPERIMENT NOTES: NCI-60 one-dose screen, 48 h (100 = growth as untreated, 0 = no growth, -100 = all killed)
- PROTOCOL CONDITIONS: 10 µM unless noted
About 83,000 compounds went through this panel and 20% of them were active in at least one assay; those are over-represented in the sample as a whole.
Form field: growth (one value per entry).
MEASUREMENT KIND: growth (%)

- MOLECULE: "C/C(=C(\\c1ccc(OCCN2CCCCCC2)cc1)c1ccc(OC(=O)Cc2ccccc2)cc1)c1ccc(Cl)cc1"
  RECORDED MEASUREMENT: -5.48
- MOLECULE: "O=C(CN1C(=O)NC2NC(=O)NC21)N/N=C/c1ccc(Cl)cc1Cl (centres undefined)"
  RECORDED MEASUREMENT: 99
- MOLECULE: "CC12CCC(/C(=C/NNc3ccc([N+](=O)[O-])cc3[N+](=O)[O-])C1=O)C2(C)C (centres undefined)"
  RECORDED MEASUREMENT: 64.5
- MOLECULE: "CC1(C)CC[C@]2(C(=O)N3CCOCC3)CC[C@]3(C)C(=CC[C@@H]4[C@@]5(C)C/C(=C/c6ccncc6)C(=O)C(C)(C)[C@@H]5CC[C@]43C)[C@@H]2C1"
  RECORDED MEASUREMENT: 2.88
- MOLECULE: "CCCCC(=O)Nc1ncc(Cc2ccccc2Cl)s1"
  RECORDED MEASUREMENT: 32.4
- MOLECULE: "COc1ccc(C2C(C#N)=C(N)Oc3c2sc2c(Br)cccc32)cc1 (centres undefined)"
  RECORDED MEASUREMENT: 10.6
- MOLECULE: "Nc1c(C(=O)Nc2cccc3ncccc23)sc2nc3c(cc12)C(=O)CCC3"
  RECORDED MEASUREMENT: 17.8
- MOLECULE: "CC(C)CCC[C@@H](C)C1CCC2C3CCC4=C/C(=N/OCCN(C)C)CC[C@]4(C)C3CC[C@@]21C (some centres undefined)"
  RECORDED MEASUREMENT: 84.9
- MOLECULE: "CCOC(=O)c1c(C)nn(CC(O)c2ccccc2)c1NC(=O)Nc1cccc(F)c1 (centres undefined)"
  RECORDED MEASUREMENT: 77.2
